Please go through the items and note down their z-score of subpopulation abundance.
Tested on: Saccharomyces cerevisiae BY4741 SeMeCo community
PROTOCOL NOTES: z-score of subpopulation abundance vs DMSO median, subpopulation auxotrophic for H; higher = larger share of this subpopulation than in DMSO controls
CONDITION PARAMETERS: 10 µM; 24 h; SM minimal medium; subpopulation (auxotrophy): H
Where a name gives a salt, the structure may show the parent alone.
One number for each entry.

Form field: z-score of subpopulation abundance recorded for CC(=O)OCC1=C(C(=O)O)N2C(=O)C(N)C2SC1 (centres undefined) [7-Aminocephalosporanic acid] with Saccharomyces cerevisiae BY4741 SeMeCo community (enter value)
0.4

Fill in the recorded z-score of subpopulation abundance for this compound, with Saccharomyces cerevisiae BY4741 SeMeCo community as test system: CC(C)=CCOc1c2occc2cc2ccc(=O)oc12 [Imperatorin]
0.08

Write down the reported z-score of subpopulation abundance of CN(C)[C@@H]1C(=O)C(C(N)=O)=C(O)[C@@]2(O)C(=O)C3=C(O)c4c(O)cccc4[C@@](C)(O)[C@H]3[C@H](O)[C@@H]12 [Oxytetracycline (Terramycin)] , test system: Saccharomyces cerevisiae BY4741 SeMeCo community.
1.45

GET /values?readout=z-score of subpopulation abundance&system=Saccharomyces cerevisiae BY4741 SeMeCo community&item= C=CCN1C[C@H](C(=O)N(CCCN(C)C)C(=O)NCC)C[C@@H]2c3cccc4[nH]cc(c34)C[C@H]21 [Cabergoline]
-0.38

What z-score of subpopulation abundance appears in the records for this compound with Saccharomyces cerevisiae BY4741 SeMeCo community? CC(NC(C)(C)C)C(=O)c1cccc(Cl)c1 (centres undefined) [Amfebutamone (Bupropion) HCl]
-0.63

API: value(readout= z-score of subpopulation abundance, system= Saccharomyces cerevisiae BY4741 SeMeCo community, query= Cn1cc(C2=C(c3cn(C4CCN(Cc5ccccn5)CC4)c4ccccc34)C(=O)NC2=O)c2ccccc21 )
-2.71

Saccharomyces cerevisiae BY4741 SeMeCo community / z-score of subpopulation abundance / C#C[C@]1(O)C=C[C@H]2[C@@H]3CCC4=CC(=O)CC[C@@H]4[C@H]3CC[C@@]21CC [Gestodene] : value?
0.25

# returns recorded z-score of subpopulation abundance (system: Saccharomyces cerevisiae BY4741 SeMeCo community) for CN1[C@@H]2C[C@@H](OC(=O)[C@H](CO)c3ccccc3)C[C@H]1[C@@H]1O[C@@H]12 [Scopolamine HBr trihydrate]
-0.46

For every item below, please supply its z-score of subpopulation abundance.
1. CN1[C@@H]2C[C@@H](OC(=O)[C@H](CO)c3ccccc3)C[C@H]1[C@@H]1O[C@@H]12 [Scopolamine HBr]
2. CC[C@@]1(O)C(=O)OCc2c1cc1n(c2=O)Cc2cc3ccccc3nc2-1 [Camptothecin]
3. CN(C)[C@@H]1C(=O)C(C(N)=O)=C(O)[C@@]2(O)C(=O)C3=C(O)c4c(O)ccc(Cl)c4[C@@](C)(O)[C@H]3C[C@@H]12 [Chlortetracycline HCl]

[-0.96, -1.03, 0.94]

Dear colleague, could you send me z-score of subpopulation abundance for each of the items below? Thanks.
1. CN(C)C(=O)Oc1cccc([N+](C)(C)C)c1 [Neostigmine Bromide]
2. CCN(C)C(=O)Oc1cccc([C@H](C)N(C)C)c1 [Rivastigmine]
3. CC(C)N(CCC(C(N)=O)(c1ccccc1)c1ccccn1)C(C)C (centres undefined) [Disopyramide]

0.03
-0.34
1.28
